Where these numbers come from: paper PMC6273229

Measured Cell viability (MTT reduction, % control) by item
System: HepG2 cells
Type: cell-based
Details: HepG2, 3 µM, 24 h; mean ± S.E.M.
Write it as a number; the unit % control goes unstated.

CCOC(=O)C1=C(C)Oc2nc3c(c(N)c2C1c1nccn1C)CCCC3 (stereo not shown) : 103.2
CC(=O)C1=C(C)Oc2nc3c(c(N)c2C1c1nccn1C)CCCC3 (stereo not shown) : 105.3
Nc1c2c(nc3ccccc13)CCCC2 : 100.4

Request the reported Cell viability (MTT reduction, % control) associated with Cn1ccnc1C1c2c(nc3c(c2N)CCCC3)Oc2ccc3ccccc3c21 (stereo not shown)
101.3
